These data points were gathered from patent US20240309095A1.

Reported pKd values for the following binders.
- TARGET: T1, human B7-H4 (purified monomeric recombinant human protein, ACRO biosystems) (human, UniProt Q7Z7D3 29-258, limits assumed, chemically biotinylated (EZ-Link NHS-LC-Biotin) in the yeast display and competition experiments; non-biotinylated in SPR)
- T1 construct: Bought recombinant monomeric protein; also called B7x; B7S1
- T1 sequence: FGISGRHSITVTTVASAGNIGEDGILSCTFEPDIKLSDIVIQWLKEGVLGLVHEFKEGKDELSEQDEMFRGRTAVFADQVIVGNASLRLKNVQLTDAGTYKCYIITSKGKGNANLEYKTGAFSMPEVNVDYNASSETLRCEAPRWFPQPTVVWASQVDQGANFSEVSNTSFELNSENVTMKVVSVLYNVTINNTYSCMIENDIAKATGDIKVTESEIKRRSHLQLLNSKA
- EXPERIMENT DESCRIPTION: SPR (Carterra LSA); scFv-Fc captured on anti-human IgG Fc, antigen injected
Value format note: pKd is -log10 of concentration (mol/L); just state the number.

A02 scFv-Fc (scFv, V domains shown, Tested as scFv-Fc fusion (human IgG1 Fc, vector pDNL9) in crude yeast supernatant; Combo 1 library) VH: EVQLVESGGGVVQPGRSLRLSCAASGFTFTSRAMNWVRQAPGKGLEWVSAISYEGRTQYYADSVKGRFTISRDNSKNTLYLQMNSLRAEDTAVYYCARKRWYGMDVWGQGTTVTVSS VL: SYELTQPPSVSVAPGKTARITCGGNNIGSKSVHWYQQKPGQAPVLVVYDDSDRPSGIPERFSGSNSGNTATLTISRVEAGDEADYYCQVWDRGMIFGTGTKLTVL	10.41

Okay, now this binder:
B10 scFv-Fc (scFv, V domains shown, Tested as scFv-Fc fusion (human IgG1 Fc, vector pDNL9) in crude yeast supernatant; Combo 2 library) VH: EVQLVESGGGVVQPGRSLRLSCAASGFTFSTRAMNWVRQAPGKGLEWVSAISGTGDTTYYADSVKGRFTISRDNSKNTLYLQMNSLRAEDTAVYYCARKRWYGMDVWGQGTTVTVSS VL: SYELTQPPSVSVAPGKTARITCGGNNIGSKSVHWYQQKPGQAPVLVVYDDSDRPSGIPERFSGSNSGNTATLTISRVEAGDEADYYCQVWGRYQMIFGTGTKLTVL yielded pKd of 9.94
